B1: INTS3 (parent)
chain: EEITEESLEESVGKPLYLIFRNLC

- Variants of: B1
- protocol.summary: protein stability index of a GFP-peptide fusion (GPS, HEK-293T) (PSI 1-6); higher = more stable;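 further: lentivirally expressed fusions sorted by FACS into six bins by GFP to DsRed ratio, PSI derived from sequencing read proportions per bin multiplied by bin number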
- assay.conditions: c terminus: a fixed tail appended
value.type: protein stability index
# print the numeric value only

The following variants have reported results that may help.
# changes, protein stability index
data = [
    ("E10N", 2.78),
    ("E6H", 2.44),
]

Consider the additional variant presented here.
So what does the record say about protein stability index for I3M ?
3.29
